# ASSAY_TARGET: T1, Bio-P19 member A2E-21 (chain 2 carries a C-terminal BirA substrate peptide (BSP), enzymatically biotinylated; the BSP letters are not given in the patent and are left out)
# T1 construct: also called biotinylated control peptide A2E-21/HLA-A*02:01 monomer
# T1 sequence (beta, as listed by the source): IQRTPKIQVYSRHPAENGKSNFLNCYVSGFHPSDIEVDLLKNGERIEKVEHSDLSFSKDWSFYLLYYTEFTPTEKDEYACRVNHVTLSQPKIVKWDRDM
# MEASUREMENT_NOTES: phage ELISA, streptavidin plate, anti-M13-HRP
OBSERVABLE: binding result

BINDER: PSA146/HLA-A*02:01-specific scFv phage clone #18 (scFv, V domains shown) VH: QVQLVQSGAEVKKPGESLKISCKGSGYSFTSYWIGWVRQMPGKGLEWMGIIYPGDSDTRYSPSFQGQVTISADKSISTAYLQWSSLKASDTAMYYCARWGSRGFLDAFDIWGQGTMVTVSS VL: QSVVTQPPSVSAAPGQRVTISCSGSSSNIGNNYVSWYQQLPGAAPRLLIYDNDKRPSGIPDRFSGSKSGTSATLGITGLQTGDEADYYCGTWDSSLSSGVFGGGTKLTVLG
OBSERVED_RESULT: no binding
//
BINDER: PSA146/HLA-A*02:01-specific scFv phage clone #5 (scFv, V domains shown) VH: QVQLVQSGAEVKKPGDSVKVSCKPSGYNFLNYGINWVRQAPGQGLEWMGWISTYTGNTNYAQKLQGRVTFTTDTSTSTAYMEMRSLRSDDTAVYYCARSSEYYTWDHWGQGTLVTVSS VL: QSVLTQPPSVSGAPGQRVTISCTGSSSNIGAGYDVHWYQQLPGTAPKLLIYGNSNRPSGVPDRFSGSKSGTSASLAITGLQAEDEADYYCQSYDSSLSGWVFGGGTKLTVLG
OBSERVED_RESULT: no binding

Where do these numbers come from? They come from patent US20200087400A1.
